# Test system: BDF1 mice, B16 melanoma ip, median survival T/C
# experiment: NCI In Vivo Anticancer Drug Screen. Data for tumor model B16 Melanoma (intraperitoneal) in B6D2F1 (BDF1) mice
# conditionContext: endpoint: median survival time; dose: 25.0 mg/kg/injection; schedule: Q01DX009 (ip); vehicle: Klucel (hydroxypropylcellulose) (HPC); higher = longer survival
Toxic doses and inconclusive results are not listed.
property: T/C

Worked examples follow.
CC(=O)C(N=Nc1ccccc1)C(C)=O ... 100 % of control
[I][Hg][CH2]C1OCCOC1[CH2][Hg][I] (centres undefined) ... 106 % of control
NC(=O)OCCCc1ccccc1 ... 94 % of control
NC(=S)Nc1cccc(Cl)c1 ... 102 % of control

Quick batch: T/C for everything below.
1. C=Cc1c(C)c2cc3[nH]c(cc4nc(cc5nc(cc1[nH]2)C(C)=C5CCC(=O)O)C(CCC(=O)O)=C4C)c(C)c3C=C
2. Nc1ccccc1N
3. COc1cc2c(cc1OC)C(CCc1ccc(Cl)cc1)N(C)CC2 (centres undefined)
4. NC(N)=NCCCOc1ccccc1
5. Oc1ccc(/C=N\Nc2ccccn2)c(O)c1

Result:
["104 % of control", "98 % of control", "88 % of control", "100 % of control", "102 % of control"]

Origin of the recorded values: PubChem BioAssay AID192
